These data points were gathered from patent US7754722B2.

Listing: log10(EC50) of selected molecules
# target.entity: UniProt P23945
# Sequence (P23945 18-695): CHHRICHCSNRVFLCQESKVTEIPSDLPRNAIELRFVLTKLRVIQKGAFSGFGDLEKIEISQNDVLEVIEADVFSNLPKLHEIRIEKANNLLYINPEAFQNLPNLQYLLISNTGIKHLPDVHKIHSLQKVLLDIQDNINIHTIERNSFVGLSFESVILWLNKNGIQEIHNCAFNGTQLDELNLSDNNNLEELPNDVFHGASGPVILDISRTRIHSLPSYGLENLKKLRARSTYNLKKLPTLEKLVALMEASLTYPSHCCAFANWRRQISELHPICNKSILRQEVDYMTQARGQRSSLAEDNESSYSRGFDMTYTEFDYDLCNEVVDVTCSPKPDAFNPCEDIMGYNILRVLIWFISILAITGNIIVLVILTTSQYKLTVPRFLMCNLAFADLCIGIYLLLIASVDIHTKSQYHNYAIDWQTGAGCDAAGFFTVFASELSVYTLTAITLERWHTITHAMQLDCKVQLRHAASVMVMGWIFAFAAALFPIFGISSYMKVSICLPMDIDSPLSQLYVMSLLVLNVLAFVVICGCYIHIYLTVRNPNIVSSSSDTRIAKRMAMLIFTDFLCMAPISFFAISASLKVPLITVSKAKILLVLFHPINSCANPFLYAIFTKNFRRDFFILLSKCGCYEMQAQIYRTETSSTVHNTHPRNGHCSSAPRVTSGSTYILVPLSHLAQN
# assay.comment: FSH assay: cAMP response element luciferase reporter in CHO cells expressing recombinant FSH receptor
# experimental.parameters: agonist activity; CHO cells stably transfected with recombinant FSH receptor; luciferase luminescence; log-dose-response curves; incubation 37° C. for 3 hrs 30 min; read-out: ED50 (the source's name)
metric.name: log10(EC50) (log10 of the value in nM)

molecule | metric.name | numeric.value
CCCCCN1CCN(S(=O)(=O)c2cccs2)C(C(=O)Nc2ccc3[nH]c4c(c3c2)CCNC4=O)C1 (centres unmarked) | log10(EC50) | 2.34
CCCCCNC(=O)N1CCN(S(=O)(=O)c2cccs2)[C@H](C(=O)Nc2cccc(-c3ccncc3)c2)C1 | log10(EC50) | 3.70
CCCCCCN1CCN(S(=O)(=O)c2cccs2)[C@H](C(=O)Nc2ccc3[nH]c4c(c3c2)CCNC4=O)C1 | log10(EC50) | 2.99
CCNC(=O)N1CCN(S(=O)(=O)c2cccs2)[C@H](C(=O)Nc2ccc3c(c2)c2ccccc2n3CC)C1 | log10(EC50) | 2.94
CCCCCCCN1CCN(S(=O)(=O)c2cccs2)[C@H](C(=O)Nc2ccc3c(c2)nc(-c2ccncc2)n3CC)C1 | log10(EC50) | 1.72
